Recorded values, source ChEMBL document CHEMBL5247610.

target: Nuclear receptor subfamily 4immunitygroup A member 1 (Homo sapiens, UniProt P22736); assay: Binding affinity to Nur77 ligand binding domain (unknown origin) by surface plasmon resonance analysis
Sequence (P22736 whole entry, the tested form may be a part): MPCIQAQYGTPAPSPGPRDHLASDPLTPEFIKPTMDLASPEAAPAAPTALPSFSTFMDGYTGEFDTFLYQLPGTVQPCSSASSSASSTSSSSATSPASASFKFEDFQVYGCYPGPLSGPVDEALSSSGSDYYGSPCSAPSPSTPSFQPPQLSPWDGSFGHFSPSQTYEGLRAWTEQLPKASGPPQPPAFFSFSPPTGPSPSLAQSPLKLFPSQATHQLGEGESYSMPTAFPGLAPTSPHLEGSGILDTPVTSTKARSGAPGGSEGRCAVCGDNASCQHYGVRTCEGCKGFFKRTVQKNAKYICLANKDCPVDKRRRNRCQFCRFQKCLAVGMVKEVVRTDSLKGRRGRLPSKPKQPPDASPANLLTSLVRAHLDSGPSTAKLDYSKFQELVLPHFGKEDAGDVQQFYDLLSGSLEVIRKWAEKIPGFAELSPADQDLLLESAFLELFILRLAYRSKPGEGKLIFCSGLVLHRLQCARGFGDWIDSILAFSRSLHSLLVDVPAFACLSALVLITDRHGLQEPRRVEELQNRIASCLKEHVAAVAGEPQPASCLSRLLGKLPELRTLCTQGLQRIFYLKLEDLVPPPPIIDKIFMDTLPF
Measured property: Kd (nM)
API: value field is a number in nM; no unit string.

Prompt line: // returns reported Kd for input `CN(C)CCCNC(=O)c1cc2cc(Nc3nccc(-c4cccnc4)n3)ccc2[nH]1`
Response line: 354

* * *

assay: Selectivity index, ratio of IC50 for human L02 cells to IC50 for human SMMC-7721 cells by MTT assay; format: toxicity; conditions: L02 cells versus SMMC-7721 cells, read-out: Ratio IC50
Measured property: selectivity ratio

CC1=C(O)C(=O)C=C2C1=CC=C1[C@@]2(C)CC[C@@]2(C)[C@@H]3C[C@](C)(C(=O)O)CC[C@]3(C)CC[C@]12C 0.19

Prompt line: // returns reported selectivity ratio for input `CN(C)CCCNC(=O)c1cc2cc(Nc3nccc(-c4cccnc4)n3)ccc2[nH]1`
Response line: 1.9
